The following compounds are shown together with reported melting point values.

// known answers, use as guide
>>> df
                               given_smiles  measurement_label  experimental_result
0  CCc1nc2c(cnn2CC)c(NC2CCOCC2)c1CNC(=O)c1cccc(C(=O)O)c1      melting point        207 to 209 °C
1  CCOC(=O)c1ccc(-c2cc(-c3ccc4c(c3)C(C)(C)CCC4(C)C)ccc2-c2ccccc2)cc1      melting point        233 to 235 °C
2  Cc1ccccc1S(=O)(=O)NC(=O)Nc1cc(C)c(S(=O)(=O)C[N+](=O)[O-])c(C)c1      melting point        194 to 196 °C
3             CNc1c(C)c(C)c(OC(C)=O)c(C)c1N      melting point        113 to 116 °C
4  N#Cc1nc(-c2cnn(-c3ccc(C(F)(F)F)cc3[N+](=O)[O-])c2Br)[nH]c1C#N      melting point          86 to 90 °C

compound `CCOc1cc(OCCCc2cn(-c3ccc(C(F)(F)F)cn3)nc2OC)ccc1CCC(=O)O` , melting point observed: 145 to 146 °C

`CN1CCN(C(=O)Nc2c(C(=O)c3ccccc3)[nH]c3cc(Cl)ccc23)CC1` has a reported melting point of 168 to 170 °C

Entry `CCOC(=O)c1nc2ccccc2n1[C@@H]1CC(C)(C)Oc2ccc(C#N)cc21` , melting point reported as 169 to 171 °C

Just so you know, measured melting point for `COc1ncc(C(F)(F)F)cc1-c1cccn2nc(Nc3ccc(C4CCN(C(=O)OC(C)(C)C)CC4)cc3)nc12` came out at 142 to 144 °C
